test target: HIV1 protease (Human immunodeficiency virus type 1 group M subtype B)
procedure text: Test 1: inhibition of proteolytic activity of HIV-1 protease (HPLC)
Type: biochemical
Parameters: proteolytic activity of HIV-1 protease
applied conditions: HPLC; HIV Substrate III; read-out: Enzyme Assays (HPLC) IC50
parameter: IC50

Notebook: `CC(C)(C)NC(=O)c1ccccc1SC[C@H](O)[C@H](Cc1ccccc1)NC(=O)[C@H](CC(N)=O)NC(=O)c1ccc[n+]([O-])c1` , IC50 read as > 100 nM

Notebook: `CN(C)C(=O)C[C@H](NC(=O)c1ccc2ccccc2n1)C(=O)N[C@@H](Cc1ccccc1)[C@@H](O)CSc1ccccc1C(=O)NC(C)(C)C` , IC50 read as > 100 nM

Notebook: `CC(C)(C)NC(=O)c1ccccc1SC[C@H](O)[C@H](Cc1ccccc1)NC(=O)[C@@H](CC(N)=O)NC(=O)c1ccc2ccccc2n1` , IC50 read as > 100 nM

Notebook: `CC(C)(C)NC(=O)c1ccccc1S(=O)(=O)C[C@H](O)[C@H](Cc1ccccc1)NC(=O)[C@H](CCS(C)(=O)=O)NC(=O)c1ccc2ccccc2n1` , IC50 read as > 100 nM

Notebook: `CC(C)(C)NC(=O)c1ccccc1OC[C@@H](O)[C@@H](NC(=O)[C@H](CC(N)=O)NC(=O)c1ccc2ccccc2n1)c1ccccc1` , IC50 read as > 500 nM

Notebook: `NC(=O)C[C@H](NC(=O)c1ccc2ccccc2n1)C(=O)N[C@@H](Cc1ccccc1)[C@@H](O)CSc1ncccn1` , IC50 read as > 50 nM

Notebook: `CC(C)[C@H](NC(=O)OC(C)(C)C)C(=O)N[C@@H](Cc1ccccc1)[C@@H](O)CSc1ccccc1C(=O)NC(C)(C)C` , IC50 read as > 100 nM

====

Kindly supply the reported IC50 values for the records listed here.
test target: HIV1 protease (Human immunodeficiency virus type 1 group M subtype B, UniProt P04585)
procedure text: Test 3: inhibition of proteolytic activity of HIV-1 protease by scintillation proximity assay (SPA)
Assay type: biochemical
applied conditions: SPA; room temperature, 40 minutes; read-out: Enzyme Assays (SPA) IC50

Notebook: NC(=O)C[C@H](NC(=O)c1ccc2ccccc2n1)C(=O)N[C@@H](Cc1ccccc1)[C@H](O)CSC1CCCC1C(=O)Nc1ccccc1 (single isomer, unassigned) [Compound 15] , IC50 read as > 200 nM

Notebook: CCC(C)[C@H](NC(=O)c1ccc2ccccc2n1)C(=O)N[C@@H](Cc1ccccc1)[C@H](O)COc1ccccc1C(=O)NC(C)(C)C (stereo partly shown) , IC50 read as > 500 nM

Notebook: `CC(C)(C)NC(=O)c1ccccc1SC[C@@H](O)[C@H](Cc1ccccc1)NC(=O)[C@H](Cc1ccccc1)NC(=O)c1ccc2ccccc2n1` , IC50 read as > 200 nM

Notebook: `CC(C)(C)NC(=O)c1ccc(SC[C@H](O)[C@H](Cc2ccccc2)NC(=O)[C@H](CC(N)=O)NC(=O)c2ccc3ccccc3n2)cc1` , IC50 read as > 200 nM

Notebook: `CC(C)(C)NC(=O)c1cccc(SC[C@@H](O)[C@H](Cc2ccccc2)NC(=O)[C@H](CC(N)=O)NC(=O)c2ccc3ccccc3n2)c1` , IC50 read as > 200 nM

Notebook: `CC(C)(C)NC(=O)c1ccccc1OC[C@@H](O)[C@H](CCc1ccccc1)NC(=O)[C@H](CC(N)=O)NC(=O)c1ccc2ccccc2n1` , IC50 read as > 500 nM

Notebook: CCC(C)[C@H](NC(=O)OC(C)(C)C)C(=O)N[C@@H](Cc1ccccc1)[C@H](O)CSc1ccccc1C(=O)NC(C)(C)C (stereo partly shown) , IC50 read as > 500 nM
